# testedOn: N-type calcium channel (NTCC) (Homo sapiens)
# Construct: host or cells: IMR32 cells differentiated with dibutyryl cAMP and bromodeoxyuridine
# Sequence (Q00975 whole entry): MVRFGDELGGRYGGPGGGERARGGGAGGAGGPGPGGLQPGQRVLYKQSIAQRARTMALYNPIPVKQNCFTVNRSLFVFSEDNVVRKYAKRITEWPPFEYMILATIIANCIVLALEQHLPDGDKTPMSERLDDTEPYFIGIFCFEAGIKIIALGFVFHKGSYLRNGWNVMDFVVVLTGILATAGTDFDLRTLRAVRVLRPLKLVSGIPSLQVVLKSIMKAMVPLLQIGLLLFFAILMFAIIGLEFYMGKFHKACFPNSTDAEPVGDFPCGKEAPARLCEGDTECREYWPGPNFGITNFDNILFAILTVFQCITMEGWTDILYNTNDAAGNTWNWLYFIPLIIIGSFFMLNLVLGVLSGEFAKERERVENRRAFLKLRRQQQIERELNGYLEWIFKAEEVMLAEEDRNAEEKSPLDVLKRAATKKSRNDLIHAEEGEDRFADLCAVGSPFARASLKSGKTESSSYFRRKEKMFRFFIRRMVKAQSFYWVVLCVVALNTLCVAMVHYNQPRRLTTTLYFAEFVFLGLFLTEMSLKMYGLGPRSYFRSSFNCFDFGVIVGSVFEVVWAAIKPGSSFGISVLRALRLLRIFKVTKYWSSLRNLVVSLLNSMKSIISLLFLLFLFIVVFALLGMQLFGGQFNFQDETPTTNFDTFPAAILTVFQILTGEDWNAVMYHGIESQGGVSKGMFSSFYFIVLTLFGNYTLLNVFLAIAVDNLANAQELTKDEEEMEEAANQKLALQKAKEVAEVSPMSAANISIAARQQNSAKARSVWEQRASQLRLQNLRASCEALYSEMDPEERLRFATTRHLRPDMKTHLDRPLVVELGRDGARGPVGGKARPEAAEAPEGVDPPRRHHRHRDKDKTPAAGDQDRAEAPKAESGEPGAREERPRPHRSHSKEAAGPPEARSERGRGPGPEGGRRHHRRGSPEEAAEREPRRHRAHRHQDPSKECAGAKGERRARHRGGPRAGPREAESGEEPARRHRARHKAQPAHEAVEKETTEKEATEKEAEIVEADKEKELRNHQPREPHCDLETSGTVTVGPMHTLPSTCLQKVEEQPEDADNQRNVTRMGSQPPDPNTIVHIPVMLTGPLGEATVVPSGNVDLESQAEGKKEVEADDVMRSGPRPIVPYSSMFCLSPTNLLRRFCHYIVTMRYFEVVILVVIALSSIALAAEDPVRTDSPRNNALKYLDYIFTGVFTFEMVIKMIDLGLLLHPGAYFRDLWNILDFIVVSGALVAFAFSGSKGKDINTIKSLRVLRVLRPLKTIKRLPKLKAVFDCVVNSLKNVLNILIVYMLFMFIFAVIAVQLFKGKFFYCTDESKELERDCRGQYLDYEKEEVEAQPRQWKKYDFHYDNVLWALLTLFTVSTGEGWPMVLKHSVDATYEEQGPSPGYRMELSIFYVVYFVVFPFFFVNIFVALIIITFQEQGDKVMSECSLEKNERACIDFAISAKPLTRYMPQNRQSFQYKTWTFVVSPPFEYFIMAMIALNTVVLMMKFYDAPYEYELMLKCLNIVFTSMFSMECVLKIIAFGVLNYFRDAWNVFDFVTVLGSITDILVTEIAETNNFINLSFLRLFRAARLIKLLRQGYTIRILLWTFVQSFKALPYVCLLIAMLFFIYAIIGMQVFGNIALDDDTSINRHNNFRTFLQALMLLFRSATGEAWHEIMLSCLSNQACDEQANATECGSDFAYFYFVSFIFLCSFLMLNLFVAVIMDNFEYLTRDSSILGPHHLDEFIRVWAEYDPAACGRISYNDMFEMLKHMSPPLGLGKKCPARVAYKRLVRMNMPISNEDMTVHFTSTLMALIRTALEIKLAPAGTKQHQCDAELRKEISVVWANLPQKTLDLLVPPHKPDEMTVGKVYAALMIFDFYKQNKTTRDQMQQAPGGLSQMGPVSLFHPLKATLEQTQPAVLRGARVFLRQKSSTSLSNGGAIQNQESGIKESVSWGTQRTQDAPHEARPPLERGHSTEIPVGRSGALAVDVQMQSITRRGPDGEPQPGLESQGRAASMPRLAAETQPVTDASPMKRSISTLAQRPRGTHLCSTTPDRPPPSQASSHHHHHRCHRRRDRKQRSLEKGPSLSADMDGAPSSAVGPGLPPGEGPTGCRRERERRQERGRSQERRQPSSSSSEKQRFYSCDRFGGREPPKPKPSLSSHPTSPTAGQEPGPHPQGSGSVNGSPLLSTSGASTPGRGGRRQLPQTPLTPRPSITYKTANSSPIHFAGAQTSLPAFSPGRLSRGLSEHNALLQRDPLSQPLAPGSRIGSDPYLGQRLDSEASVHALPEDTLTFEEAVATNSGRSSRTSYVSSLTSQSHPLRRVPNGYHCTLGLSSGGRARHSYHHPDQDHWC
# testDescription: FLIPR calcium mobilization assay for N-type calcium channel (differentiated IMR32 cells)
# Assay type: cell-based
# studyConditions: calcium mobilization in vitro assay, N-type calcium channel blockers
# Text: Cell maintenance and differentiation. Unless noted otherwise, cell culture reagents were purchased from Mediatech of Hemdon, Md. […] FLIPR Calcium Mobilization Assay for N-type Calcium Channel. […] Plates were then transferred to a Fluorimetric imaging Plate Reader (FLIPR^96, Molecular Devices, Inc., Sunnyvale, Calif.) for assay. […]
Where a name gives a salt, the structure may show the parent alone.
hey, just use MET if measured IC50 is less than 400 nM, otherwise NOT MET

>>> labelclass("CCCCc1ccc(S(=O)(=O)N2CCC(=NOCc3cccc(C#N)c3)CC2)cc1")
"MET"
>>> labelclass("O=S(=O)(c1ccc(OC(F)(F)F)cc1)N1CCC(=NOCc2nc3cc(Cl)cnc3[nH]2)CC1")
"MET"
>>> labelclass("Fc1ccc(C(CCCN2CCC(=NOCc3cccc(C(F)(F)F)c3)CC2)c2ccc(F)cc2)cc1 [Example 12, oxalate]")
"NOT MET"
>>> labelclass("O=S(=O)(c1cccc(C(F)(F)F)c1)N1CCC(=NOCC2CCCCC2)CC1")
"NOT MET"
>>> labelclass("Fc1ccc(C(CCCN2CCC(=NOCc3cccnc3)CC2)c2ccc(F)cc2)cc1 [Example 16, dioxalate]")
"MET"
>>> labelclass("CN[C@@H](CC(C)C)C(=O)N1CCC(=NOCc2ccc(Cl)cc2)CC1 [Example 4, hydrochloride]")
"NOT MET"
>>> labelclass("O=C(CCC(c1ccc(F)cc1)c1ccc(F)cc1)N1CCC(=NOCc2ccncc2)CC1 [Example 19, oxalate]")
"NOT MET"
>>> labelclass("O=C(CN1CCC(=NOC(c2ccc(F)cc2)c2ccc(F)cc2)CC1)Nc1cc(C(F)(F)F)cc(C(F)(F)F)c1")
"NOT MET"
>>> labelclass("O=c1ccc(CON=C2CCN(S(=O)(=O)c3ccc(OC(F)(F)F)cc3)CC2)cn1Cc1ccc(F)cc1")
"MET"
>>> labelclass("CC(C)C[C@H](N)CC(=O)N1CCC(=NOCc2cccc(C(F)(F)F)c2)CC1 [Example 24, oxalate]")
"NOT MET"
